Test system: Oryza sativa
Assay: Effect on Oryza sativa (rice) assessed as growth rate at 10 uM relative to control
Assay type: organism-based
Conditions: in vivo
observable: Activity
Reply with the number, then its unit.

## Input Look up Activity for this molecule: "C[C@H](NC(=O)Nc1c(Cl)cccc1Cl)c1ccccc1"
## Output 99%

***
## Input Data request, read-out Activity, for "C[C@H](NC(=O)Nc1cccc(C(F)(F)F)c1F)c1ccccc1"
## Output 100%

## Input // Activity lookup, key: "C[C@@H](NC(=O)Nc1cccc(C(F)(F)F)c1)c1ccccc1"
## Output 70%

## Input // query Activity value for entry "C[C@@H](NC(=O)Nc1ccc(F)cc1)c1ccccc1"
## Output 92%

## Input Tell me the measured Activity of "C[C@@H](NC(=O)Nc1ccc(Cl)cc1Cl)c1ccccc1" , please.
## Output 100%

## Input # query: Activity of entry "C[C@@H](NC(=O)Nc1ccc(Cl)c(Cl)c1)c1ccccc1"
## Output 93%

###

Tested on: Oryza sativa
Assay: Effect on Oryza sativa (rice) assessed as growth rate at 10 uM relative to control
Assay type: organism-based
Settings: in vivo
observable: Activity (%)
Answer in %, number only, no unit symbol.

Reference set, count: 3
## Input So what does the record say about Activity for "C[C@H](NC(=O)Nc1cc(C(C)(C)C)ccc1C(C)(C)C)c1ccccc1" ?
## Output 97

## Input Fill blank: measured Activity of the compound "CCc1ccccc1NC(=O)N[C@@H](C)c1ccccc1" is ____.
## Output 95

## Input Please look up its Activity: "C[C@@H](NC(=O)Nc1ccc(Cl)cc1)c1ccccc1"
## Output 87

Consider the record given below.
## Input Reported Activity for "C[C@@H](NC(=O)Nc1ccccc1I)c1ccccc1" : what is it?
## Output 96

###

Test: Hydrophobicity, log K of the compound
Type: physicochemical
Details: octanol/water
Known log K of a selection of molecules
Just the number, please, no unit after it.

## Input # lookup: log K of "CCc1ccc(NC(=O)N[C@H](C)c2ccccc2)cc1"
## Output 0.487

## Input Give the measured log K of "C[C@@H](NC(=O)Nc1cccc(Cl)c1Cl)c1ccccc1" .
## Output 0.646

## Input // returns reported log K for input "Cc1ccc(NC(=O)N[C@H](C)c2ccccc2)cc1"
## Output 0.367

---
## Input Consider the molecule "CCOC(=O)c1cccc(NC(=O)N[C@@H](C)c2ccccc2)c1" and give its measured log K.
## Output 0.419

###

Listing: Activity of selected molecules
Tested on: Oryza sativa
Assay: Effect on Oryza sativa (rice) assessed as growth rate at 1 uM relative to control
Format: organism-based
Settings: in vivo
Response body: numeric value in %, unit text excluded.

See these solved cases before continuing.
## Input What does the record list as Activity for "C[C@@H](NC(=O)Nc1cc(F)cc(F)c1)c1ccccc1" ?
## Output 98

## Input State the recorded Activity for this entry: "Cc1cccc(NC(=O)N[C@H](C)c2ccccc2)c1"
## Output 98

## Input Recorded Activity for "CC(C)c1ccc(NC(=O)N[C@H](C)c2ccccc2)cc1" , please?
## Output 79

## Input Fill in: Activity of "C[C@H](NC(=O)Nc1cc(Cl)cc(Cl)c1)c1ccccc1" is ___
## Output 100

## Input Any idea what Activity was measured for "C[C@H](NC(=O)Nc1ccccc1C(F)(F)F)c1ccccc1" ?
## Output 98

More entries:
## Input What value of measured Activity is listed for "C[C@H](NC(=O)Nc1ccc(C(F)(F)F)cc1)c1ccccc1" ?
## Output 94

## Input Entry "C[C@H](NC(=O)Nc1ccc(F)cc1F)c1ccccc1" : reported Activity = ?
## Output 100

## Input Dear colleague, I am looking for the recorded Activity of the following molecule: "CC(=O)c1cccc(NC(=O)N[C@H](C)c2ccccc2)c1"
## Output 88

## Input I'd like to know its Activity. The molecule in question is "CC(=O)c1ccc(NC(=O)N[C@@H](C)c2ccccc2)cc1"
## Output 99
